Hello, the source for this data is PubChem BioAssay (Tox21), in case you need it.

target or test system: Cytochrome P450 2C9 (Homo sapiens)
assay details: Cytochrome P450 Family 2 Subfamily C Member 9 (CYP2C9) small molecule antagonists: luciferase reporter qHTS assay (AID 1671198); note: nearly all actives have a fitted effect of over 50% in size
run conditions: P450-Glo CYP2C9 enzyme assay, luciferin luminescence; series mostly up to 115 µM
Results filed as inconclusive are left out. Activity calls are given as the source filed them. Calls come from the whole dose curve; as a rule, active = well fitted inhibition curve with a large enough effect in the repeat runs; inconclusive = weak or mixed curves; inactive = no such curve, though single readings can be large or run the other way.
Outcomes: active, inactive

> print(dat)
                                    compound               target.or.test.system     group
 1                          CCCCCCC#CC(=O)OC  Cytochrome P450 2C9 (Homo sapiens)  inactive
 2  COc1cccc(OC)c1C(=O)N[C@@H]1C(=O)N2[C@@H]1SC(C)(C)[C@@H]2C(=O)O  Cytochrome P450 2C9 (Homo sapiens)  inactive
 3              Cc1ncc(COP(=O)(O)O)c(C=O)c1O  Cytochrome P450 2C9 (Homo sapiens)  inactive
 4                        CCCCOC(=O)CCC(C)=O  Cytochrome P450 2C9 (Homo sapiens)  inactive
 5      O=S(=O)(O)c1cc(O)c(O)c(S(=O)(=O)O)c1  Cytochrome P450 2C9 (Homo sapiens)  inactive
 6                         Cc1coc2ccccc2c1=O  Cytochrome P450 2C9 (Homo sapiens)  inactive
 7        CC1(C)[C@@H]2CC[C@@]1(C)[C@H](O)C2  Cytochrome P450 2C9 (Homo sapiens)  inactive
 8       CCN1C=CN(C)C1C (stereo unspecified)  Cytochrome P450 2C9 (Homo sapiens)  inactive
 9  C=COCC1CCC(COC=C)CC1 (stereo unspecified)  Cytochrome P450 2C9 (Homo sapiens)  inactive
10            CCOCC(C)O (stereo unspecified)  Cytochrome P450 2C9 (Homo sapiens)  inactive
11          C=C[Si](OC(C)=O)(OC(C)=O)OC(C)=O  Cytochrome P450 2C9 (Homo sapiens)  inactive
12  CCN[C@H]1C[C@H](C)S(=O)(=O)c2sc(S(N)(=O)=O)cc21  Cytochrome P450 2C9 (Homo sapiens)  inactive
13  C=CC(C)(CCC=C(C)C)OC(=O)CC (stereo unspecified)  Cytochrome P450 2C9 (Homo sapiens)    active
14  Cc1nc(C2CCCCC2)c(-c2ccc(S(N)(=O)=O)c(F)c2)o1  Cytochrome P450 2C9 (Homo sapiens)    active
15  CCCC(=O)O[C@]1(C(=O)CC)CC[C@H]2[C@@H]3CCC4=CC(=O)CC[C@]4(C)[C@H]3[C@@H](O)C[C@@]21C  Cytochrome P450 2C9 (Homo sapiens)    active
16                    CN1C(C)(C)CC(O)CC1(C)C  Cytochrome P450 2C9 (Homo sapiens)  inactive
17        CC1CCC(CO)CC1 (stereo unspecified)  Cytochrome P450 2C9 (Homo sapiens)  inactive
18                  CCCO[Si](OCCC)(OCCC)OCCC  Cytochrome P450 2C9 (Homo sapiens)  inactive
19  CN(C)[C@@H]1C(=O)C(C(=O)NCN2CCCC2)=C(O)[C@@]2(O)C(=O)C3=C(O)c4c(O)cccc4[C@@](C)(O)C3C[C@@H]12 (stereo partly specified)  Cytochrome P450 2C9 (Homo sapiens)  inactive
20    CC/C=C\CCOC(C)OCC (stereo unspecified)  Cytochrome P450 2C9 (Homo sapiens)  inactive
21  C=C(C)C(=O)OCC(O)CO (stereo unspecified)  Cytochrome P450 2C9 (Homo sapiens)  inactive

---

assay details: qHTS assay for identifying genotoxic compounds that show differential cytotoxicity against isogenic chicken DT40 cell lines with known DNA damage response pathways - Rad54/Ku70 mutant cell line (AID 743015); note: nearly all actives have a fitted effect of over 60% in size
run conditions: DT40 Rad54/Ku70 mutant viability, CellTiter-Glo, 40 h; series mostly up to 66.8 µM
Records with an inconclusive call do not appear. Active and inactive are the calls of the source. Calls come from the whole dose curve; as a rule, active = well fitted cell-killing curve with a large enough effect in the repeat runs; inconclusive = weak or mixed curves; inactive = no such curve, though single readings can be large or run the other way.
Outcomes: 1 (yes) for active, 0 (no) for inactive

> print(dat)
                                    molecule    group
 1                        CN(C)CCN(C)CCN(C)C   0 (no)
 2       CC1=NN(c2cccc(S(=O)(=O)O)c2)C(=O)C1   0 (no)
 3  CO[C@@]1(NC(=O)CSC[C@@H](N)C(=O)O)C(=O)N2C(C(=O)O)=C(CSc3nnnn3C)CS[C@@H]21   0 (no)
 4                            C=CN1CCCCCC1=O   0 (no)
 5  CC(=O)OCC(=O)[C@@]1(O)[C@H](C)C[C@H]2[C@@H]3CCC4=CC(=O)C=C[C@]4(C)[C@@]3(F)[C@@H](O)C[C@@]21C   0 (no)
 6                     O=C(O)CNC(=O)c1ccccc1   0 (no)
 7                        Clc1cc(Cl)cc(Cl)c1   0 (no)
 8                      c1ccc(CCc2ccccc2)cc1   0 (no)
 9                       CC(C)c1ccc2ncccc2c1   0 (no)
10       O=C(CO)[C@@H](O)[C@H](O)[C@@H](O)CO   0 (no)
11                            CCOc1ccccc1OCC   0 (no)
12                          C1CCC2=NCCCN2CC1   0 (no)
13  CCCCc1ccc2c(n1)[C@@H](c1ccc(OC)cc1C[C@H](C)C(=O)O)[C@H](C(=O)O)[C@H]2c1ccc2c(c1)OCO2   0 (no)
14  CCCCc1nc(Cl)c(CO)n1Cc1ccc(-c2ccccc2-c2nn[nH]n2)cc1   0 (no)
15  CCOC(=O)OC(C)OC1=C(C(=O)Nc2ccccn2)N(C)S(=O)(=O)c2ccccc21 (centres undefined)  1 (yes)
16            CC(=O)N1C[C@H](O)C[C@H]1C(=O)O   0 (no)
17                 CCO[Si](OCC)(OCC)c1ccccc1   0 (no)
18                    CC(CO)(CO)[N+](=O)[O-]   0 (no)
19        CCCCOCCOC(=O)CCCCCCCCC(=O)OCCOCCCC   0 (no)
20  CC[N+](C)(CC)CCOC(=O)C1c2ccccc2Oc2ccccc21   0 (no)
21                                 Nc1ccccn1   0 (no)
22                  COC(=O)Nc1ccc(Cl)c(Cl)c1   0 (no)
23            O=C(O)c1cc(C(=O)O)cc(C(=O)O)c1   0 (no)
24            CCCCCC(C)N (centres undefined)   0 (no)
25  CC[N+](CC)(CC)CCOc1cccc(OCC[N+](CC)(CC)CC)c1OCC[N+](CC)(CC)CC   0 (no)
26                                     CNCCO   0 (no)
27                        CC(=O)Oc1cccc(C)c1   0 (no)
28  COc1ccc2cc1Oc1cc3c(cc1OC)CC[N+](C)(C)[C@H]3Cc1ccc(cc1)Oc1c(OC)c(OC)cc3c1[C@@H](C2)[N+](C)(C)CC3   0 (no)
29                           CCCCN1C=CN(C)C1   0 (no)
30                      CC(=O)c1ccc2ccccc2c1   0 (no)
31  CC(=O)N[C@H]1[C@H]([C@H](O)[C@H](O)CO)OC(C(=O)O)=C[C@@H]1N=C(N)N   0 (no)
32                 CC(C)(C)OC(=O)c1cccc(N)c1   0 (no)
33  CC12CCC(C(=O)C1=O)C2(C)C (centres undefined)   0 (no)
34  CC(C(=O)O)c1cccc(Oc2ccccc2)c1 (centres undefined)   0 (no)
